- Tested On: furin, P09958;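 also: purified furin at 1:10 enzyme:substrate in 50 mM HEPES pH 7.5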
- Sequence (P09958 whole entry): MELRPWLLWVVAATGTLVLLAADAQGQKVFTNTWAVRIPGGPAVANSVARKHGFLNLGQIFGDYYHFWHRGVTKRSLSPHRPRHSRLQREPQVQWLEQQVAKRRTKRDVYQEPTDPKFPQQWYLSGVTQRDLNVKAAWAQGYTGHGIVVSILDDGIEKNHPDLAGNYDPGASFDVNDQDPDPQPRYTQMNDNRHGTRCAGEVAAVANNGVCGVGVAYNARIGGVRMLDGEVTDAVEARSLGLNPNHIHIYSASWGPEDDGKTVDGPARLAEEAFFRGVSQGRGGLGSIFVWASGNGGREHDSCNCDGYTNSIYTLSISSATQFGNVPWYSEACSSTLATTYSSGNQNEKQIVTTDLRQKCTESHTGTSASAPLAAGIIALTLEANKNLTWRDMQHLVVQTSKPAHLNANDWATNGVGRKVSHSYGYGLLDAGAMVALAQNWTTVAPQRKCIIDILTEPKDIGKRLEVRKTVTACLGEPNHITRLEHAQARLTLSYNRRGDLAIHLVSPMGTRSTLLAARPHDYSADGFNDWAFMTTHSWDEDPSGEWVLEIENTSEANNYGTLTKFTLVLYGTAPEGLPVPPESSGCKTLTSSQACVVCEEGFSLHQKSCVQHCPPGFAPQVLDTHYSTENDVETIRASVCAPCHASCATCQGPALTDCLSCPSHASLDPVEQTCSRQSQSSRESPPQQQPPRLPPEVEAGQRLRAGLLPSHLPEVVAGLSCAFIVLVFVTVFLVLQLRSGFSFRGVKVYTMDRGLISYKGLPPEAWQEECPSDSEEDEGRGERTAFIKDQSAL
- Procedure Summary: furin cleavage Z-score vs untreated control; higher = more cleavage, active = 3.5 or more, inactive = 1 or less, 8 variable residues between constant flanks
- Condition: 30 min
The list shows a part of the results. The hit rate among all sequences tested is not known here.
Measure Name: furin cleavage Z-score
# print the numeric value only

Solved cases (2 shown):
CADWLRQRRTAGNASASA [FS-1317]	1.74
CARRRRAVPVAGNASASA [FS-2596]	1.42

Next sequence, please.
Query string: Can you look up the measured furin cleavage Z-score of CARRRRFPFVAGNASASA [FS-1784] for me?
Result string: 1.3
